Exercise: for every item that follows, state its recorded koff.
target: SARS-CoV-2 spike receptor-binding domain, Omicron BA.2 variant (amino acids 331-529), biotinylated (SARS-CoV-2 Omicron BA.2, G504D | S371F | S375F | T376A | D405N | R408S | K417N | N440K | S477N | T478K | …, biotin (RBD expression vector co-expressed with BirA-Flag, 100 μM biotin added)); experiment: BLI; conditions: both partners purified
One number for each entry, in s⁻¹.

The following binders each have a reported value; give each one's koff.
1. NIV-11 Fab (Fab, V domains shown) VH: QLVQSGPEVKKPGTSVKVSCKASGFTFYYSAVQWVRQARGQRLEWLGWMAVGSGKANYAQKFQERLTLTRDMSTSTAYMELSSLRSEDTAVYYCAAPNCTGGSCYDGFNLWGQGTVVTVSS VL: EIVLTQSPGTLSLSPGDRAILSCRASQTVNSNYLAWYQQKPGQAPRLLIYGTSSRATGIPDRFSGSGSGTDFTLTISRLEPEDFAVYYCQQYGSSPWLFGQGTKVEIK
2. NIV-10 Fab (Fab, V domains shown) VH: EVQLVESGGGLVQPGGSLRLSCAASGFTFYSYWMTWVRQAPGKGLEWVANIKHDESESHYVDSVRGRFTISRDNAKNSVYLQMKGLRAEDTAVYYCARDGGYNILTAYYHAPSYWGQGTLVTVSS VL: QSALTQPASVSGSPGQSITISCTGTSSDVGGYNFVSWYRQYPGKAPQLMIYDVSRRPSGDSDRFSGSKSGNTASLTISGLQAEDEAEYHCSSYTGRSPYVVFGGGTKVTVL
3. NIV-13 Fab (Fab, V domains shown) VH: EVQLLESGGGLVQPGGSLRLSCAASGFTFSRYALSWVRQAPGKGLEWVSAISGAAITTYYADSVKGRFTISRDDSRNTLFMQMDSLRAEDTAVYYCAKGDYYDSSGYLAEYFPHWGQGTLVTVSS VL: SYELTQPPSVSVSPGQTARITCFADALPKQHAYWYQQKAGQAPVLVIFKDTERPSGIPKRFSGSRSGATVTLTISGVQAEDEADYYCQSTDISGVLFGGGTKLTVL
4. NIV-8 Fab (Fab, V domains shown) VH: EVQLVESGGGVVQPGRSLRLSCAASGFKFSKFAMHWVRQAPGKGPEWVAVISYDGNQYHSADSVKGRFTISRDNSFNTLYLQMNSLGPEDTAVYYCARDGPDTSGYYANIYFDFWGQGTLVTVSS VL: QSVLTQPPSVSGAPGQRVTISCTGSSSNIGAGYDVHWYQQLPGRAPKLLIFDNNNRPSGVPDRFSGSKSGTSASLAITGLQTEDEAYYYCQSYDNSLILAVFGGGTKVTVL

1. 0.00355
2. 0.0064
3. 0.000369
4. 0.00206
